# credit: the supplement of paper PMC8728848

# target_or_test_system: Gal(a1-3)Gal(b1-4)[Fuc(a1-3)]GlcNAc(b1-2)Man(a1-3)[Gal(a1-3)Gal(b1-4)[Fuc(a1-3)]GlcNAc(b1-2)Man(a1-6)]Man(b1-4)GlcNAc(b1-4)GlcNAc
# measurement_description: glycan array binding signal (z-score within array); higher = stronger binding
# experimental_context: glycan notation: IUPAC condensed, linker removed
The sample as a whole holds a higher share of the strongest signals than the screen did.
Is glycan array binding signal (z-score) at least 0.3? Then Satisfied. If not, Not satisfied.

Challenge: Can DGL (Dioclea grandiflora), P08902 (protein) ADTIVAVELDSYPNTDIGDPNYPHIGIDIKSIRSKSTARWNMQTGKVGTVHISYNSVAKRLSAVVSYSGSSSTTVSYDVDLNNVLPEWVRVGLSATTGLYKETNTILSWSFTSKLKTNSIADENSLHFSFHKFSQNPKDLILQGDAFTDSDGNLELTKVSSSGDPQGNSVGRALFYAPVHIWESSAVVASFDATFTFLIKSPDREPADGITFFIANTDTSIPSGSGGRLLGLFPDAN be said to have glycan array binding signal (z-score) at or above 0.3?
Response given: Not satisfied

Challenge: Can Gal 2 (Canis lupus) (protein) MSGKFEVMNMDMKLGGTLKIKGKIAGDADGFVINLGQGSDKLNLHFNPRFHESVIVCNSRNWGQEQRDKHMCFSPGSEVKFTVTFENDGFKVKLPDGHQLTFPNRLGHSHLSYLGVQGGLKVSSFKIE be said to have glycan array binding signal (z-score) at or above 0.3?
Response given: Satisfied

Challenge: Can ECA (Erythrina cristagalli), P83410 (protein) VETISFSFSEFEPGNDNLTLQGAALITQSGVLQLTKINQNGMPAWDSTGRTLYTKPVHMWDSTTGTVASFETRFSFSIEQPYTRPLPADGLVFFMGPTKSKPAQGYGYLGVFNNSKQDNSYQTLAVEFDTFSNPWDPPQVPHIGIDVNSIRSIKTQPFQLDNGQVANVVIKYDAPSKILHVVLVYPSSGAIYTIAEIVDVKQVLPDWVDVGLSGATGAQRDAAETHDVYSWSFQASLPE be said to have glycan array binding signal (z-score) at or above 0.3?
Response given: Satisfied

Challenge: Can Pp2-A2 (Arabidopsis thaliana), Q07098 (protein) MPSNGDLDRQIEQLMECKPLSEADVRTLCDQARAILVEEYNVQPVKCPVTVCGDIHGQFYDLIELFRIGGNAPDTNYLFMGDYVDRGYYSVETVSLLVALKVRYRDRLTILRGNHESRQITQVYGFYDECLRKYGNANVWKYFTDLFDYLPLTALIESQVFCLHGGLSPSLDTLDNIRSLDRIQEVPHEGPMCDLLWSDPDDRCGWGISPRGAGYTFGQDIAAQFNHNNGLSLISRAHQLVMEGFNWCQDKNVVTVFSAPNYCYRCGNMAAILEIGENMEQNFLQFDPAPRQVEPDTTRKTPDYFL be said to have glycan array binding signal (z-score) at or above 0.3?
Response given: Not satisfied

Challenge: Can Intelectin-1a (Mus musculus) (protein) AEWSHPQFEKAEENLDTNRWGNSFFSSLPRSCKEIKQEHTKAQDGLYFLRTKNGVIYQTFCDMTTAGGGWTLVASVHENNMRGKCTVGDRWSSQQGNRADYPEGDGNWANYNTFGSAEAATSDDYKNPGYFDIQAENLGIWHVPNKSPLHNWRKSSLLRYRTFTGFLQHLGHNLFGLYKKYPVKYGEGKCWTDNGPALPVVYDFGDARKTASYYSPSGQREFTAGYVQFRVFNNERAASALCAGVRVTGCNTEHHCIGGGGFFPEGNPVQCGDFASFDWDGYGTHNGYSSSRKITEAAVLLFYR be said to have glycan array binding signal (z-score) at or above 0.3?
Response given: Satisfied

Challenge: Can OGAA (protein) MVQKESQATLEERESELSSNPAASAGASLEPPAAPAPGEDNPAGAGGAAVAGAAGGARRFLCGVVEGFYGRPWVMEQRKELFRRLQKWELNTYLYAPKDDYKHRMFWREMYSVEEAEQLMTLISAAREYEIEFIYAISPGLDITFSNPKEVSTLKRKLDQVSQFGCRSFALLFADIDHNMCAADKEVFSSFAHAQVSITNEIYQYLGEPETFLFCPTEYCGTFCYPNVSQSPYLRTVGEKLLPGIEVLWTGPKVVSKEIPVESIEEVSKIIKRAPVIWDNIHANDYDQKRLFLGPYKGRSTELIPRLKGVLTNPNCEFEANYVAIHTLATWYKSNMNGVRKDVVMTDSEDSTVSIQIKLENEGSDEDIETDVLYSPQMALKLALTEWLQEFGVPHQY be said to have glycan array binding signal (z-score) at or above 0.3?
Response given: Satisfied

Challenge: Can Morniga (Morus nigra) (protein) MAGTSTNTQTTGTSQTVEVGLWGGPGGNAWDDGSYTGIREINLSHGDAIGAFSVIYDLNGQPFTGPTHPGNEPSFKTVKITLDFPNEFLVSVSGYTGVLPRLATGKDVIRSLTFKTNKKTYGPYGKEEGTPFSLPIENGLIVGFKGRSGFVVDAIGVHLS be said to have glycan array binding signal (z-score) at or above 0.3?
Response given: Satisfied

Challenge: Can NPA (Narcissus pseudonarcissus), C0HM45 (protein) DNILYSGETLSPGEFLNNGRYVFIMQEDCNLVLYDVDKPIWATNTGGLDRRCHLSMQSDGNLVVYSPRNNPIWASNTGGENGNYVCVLQKDRNVVIYGTARWATGTNIH be said to have glycan array binding signal (z-score) at or above 0.3?
Response given: Not satisfied

Challenge: Can rCnSL-proA (Clitocybe nebularis) (protein) AAFFSLVVLLALLPFGIHASALPSTELTPRVNPNLPGPNDVFVGFRGTNNIVGAIYEKDGIKDTPLNNGADAEMGPGSYITDGLFTARIFASGSAGNNPGTTATVCKIYASGVQWRGAPKGYIPVAYFGNGPTAEQRRQTYLRTLGLPGTAIRFGNLNTNPGQGPTAPRQMVVPPGPLRSLLKASCFPAADTRLPQTLHYFEKRVDWNIITAADSQTWGH be said to have glycan array binding signal (z-score) at or above 0.3?
Response given: Satisfied
